Molecular target: RSV F on RSV-A2 virus (Respiratory syncytial virus, RSV-A2, UniProt P03420 26-574)
Experiment: cell-based or functional assay
Reported Neutralization IC50 (RSV subtype A) is given for each of the following binders.

# binder, readout.relation, Neutralization IC50 (RSV subtype A) [µg/mL]
rows = [
    ("ADI-41567 (antibody, V domains shown, also called Ab 845; Antibody Number 845) VH: QVQLQQWGAGLLKPSETLSLTCEVYGGSFSGYYWTWFRQPPGEGLEWIGEINHSGGTNYNPSLKSRVTMSVDASINQFSLQLSSVTAADTSVYYCARGHYYNTNDFYGLFDYWGQGTLVTVSS VL: DIRLTQSPSFLSASVGDRVTITCRASQGISTYLAWYQQKPGKAPKLLLYAASTLHSGVPSRFSGSGSGTEFTLTISSLQPEDFATYYCQQLNRYPPSTFGPGTKLEIK", "=", 0.0505),
    ("ADI-41564 (antibody, V domains shown, also called Ab 844; Antibody Number 844) VH: QVQLVQSGAEVKKPGSSVKVSCKAFGGTLRRYALSWVRQAPGQGLEWMGGIIPVFGTRRYAQKFQGRITITADGSTSTASMEVSSLRFEDTAIYYCATVYFDFVSGPPPTYYYYYMDVWGKGTTVTVSS VL: DIVMTQSPGTLSLSPGERATLSCRASQSVSSSYLAWYQQKPGQAPRLLIYGASSRATGIPDRFSGSGSGTDFTLTISRLEPEDFAVYYCQQYDSSLRVLTFGGGTKVDIK", ">", 25),
]
